METHOD: NCI Yeast Anticancer Drug Screen. Data for the cln2 rad14 strain (AID 165);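 further: 0% = growth equal to vehicle treated cultures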
EXPERIMENTAL PARAMETERS: S. cerevisiae cln2 rad14 strain, at 50.0 µM
The panel holds about 79,000 compounds, 15% with a hit somewhere; the sample as a whole holds those more often. Activity calls are given as the source filed them. No stated cut-off is given here; in the data, active means growth inhibition above about 70%; inactive means the rest. Where a SMILES comes first, the peptide text is derived from it. The star is where a group is joined. Cbz = O=C(OCc1ccccc1)*; Boc = CC(C)(C)OC(=O)*; OSu = O=C1CCC(=O)N1O*; Bn = c1ccc(C*)cc1
Possible outcomes: active, inactive

COMPOUND	CLASS ASSIGNMENT
O=C1CSC(c2cccc(Cl)c2)N1CCN1C(=O)CSC1c1cccc(Cl)c1 (configuration not stated)	inactive
CN(N=O)C(=O)NCc1ccc(Cl)cc1	inactive
C/C(=N\NC(=O)CC(=O)N(C(=O)c1ccc(Cl)cc1)c1ccc(C)cc1)c1ccccc1O	inactive
CN(C(=O)CCCO)c1cc([N+](=O)[O-])ccc1OCc1ccccc1	inactive
CC(C)(C)OC(=O)NC(Cc1ccc(OCc2ccccc2)cc1)C(=O)NC(CCCCNC(=O)OCc1ccccc1)C(=O)NC(CCCCNC(=O)OCc1ccccc1)C(=O)ON1C(=O)CCC1=O (configuration not stated) (Boc-Tyr(Bn)-Lys(Cbz)-Lys(Cbz)-OSu; configuration not given here)	inactive
C[N+]1(CC(O)C[N+]2(C)CCCCCC2)CCCCCC1	inactive
O=P(c1ccccc1)(c1ccccc1)c1ccccc1OCc1cccc(COc2ccccc2P(=O)(c2ccccc2)c2ccccc2)n1	inactive
COc1ccc(C2(c3ccc(OC)cc3)c3ccccc3Cc3c(OC)cccc32)cc1	inactive
NC(=O)NCCSC1CCCCC1O (configuration not stated)	inactive
CC(=O)O[C@H]1C[C@H]2[C@@H](OC(C)=O)/C=C3\C[C@](C)(C(=O)[C@H](O)C(=C1C)C2(C)C)[C@@H](O)C[C@@H]3OC(=O)[C@H](O)[C@H](c1ccccc1)N(C)C	inactive
O=C(NCCO)Nc1ccc2c(c1)OCCOCCOCCOCCO2	inactive
Cc1cccc(C)n1	inactive
N#CCCN(Cc1ccccc1)C(=S)Nc1cccc(C(F)(F)F)c1	active
COc1cccc2c(NCCCCCO[N+](=O)[O-])cc[n+](C)c12	inactive
COCc1nc2c(=O)[nH]c(N)nc2[nH]c1=O	inactive
COc1ccc2c(c1OC)OC1CNc3cc(C)c(C)cc3N=C1C2 (configuration not stated)	inactive
CC(Cl)CNC(=O)Nc1cccc2c1CCCC2 (configuration not stated)	inactive
C[N+]1(CC(O)c2ccccc2)CCCC1 (configuration not stated)	inactive
CN(NC(=O)c1cccs1)C1=NCCN1	inactive
COC(=NC(C)C)NC(C)C	inactive
CCC(=O)COC(C)=O	inactive
Cc1cccc(C(C)C)c1NC(=O)C(=O)CC(=O)c1c(C)n([O-])c2ccccc2[n+]1=O	inactive
N=C1CCCS1	inactive
OC(C(c1ccccc1)N1CCCCC1)C(O)(c1ccccc1)c1ccccc1 (configuration not stated)	inactive
Cc1ccc(/C(O)=C/c2nc3ccc([N+](=O)[O-])cc3nc2/C=C(\O)c2ccc(C)cc2)cc1	inactive
COC(=O)N1CC2CC=CC(C2)c2ccccc21 (configuration not stated)	inactive
CCOc1ccc(N=c2ccn3ccccc3c2)cc1	inactive

###

Property: growth inhibition; scope: individual compounds
METHOD: NCI Yeast Anticancer Drug Screen. Data for the mlh1 rad18 strain (AID 175)
EXPERIMENTAL PARAMETERS: S. cerevisiae mlh1 rad18 strain growth inhibition; at 50.0 µM; hits give high values
This is part of a sample that, as a whole, favours compounds with a hit. Of some 79,000 tested, about 15% had one in any assay.
PROPERTY MEASURED: growth inhibition (%)

> print(dat)
                         compound.structure  property.measured  endpoint.value
1            CCOC(=O)c1c2c(nc3c1CCCC3)CCCC2  growth inhibition           -24.9
2               CCOC(=O)N1C(=O)c2ccccc2C1=O  growth inhibition           -9.25
3  O=C(NNC(=S)NCc1ccccc1)C12CC3CC(CC(C3)C1)C2  growth inhibition            -5.9

###

METHOD: NCI Yeast Anticancer Drug Screen. Data for the cln2 rad14 strain (AID 165);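 further: 0% = growth equal to vehicle treated cultures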
EXPERIMENTAL PARAMETERS: S. cerevisiae cln2 rad14 strain, at 50.0 µM, hits give high values
This is part of a sample that, as a whole, favours compounds with a hit. Of some 79,000 tested, about 15% had one in any assay. Active and inactive are the calls of the source. No stated cut-off is given here; in the data, active means growth inhibition above about 70%; inactive means the rest.

MOLECULE	growth inhibition
COC(=O)C(O)CC1=CC[C@@H]2CC=C[C@H]12 (stereo partly drawn)	3.7% (inactive)
COc1ccc(-c2cc3c(c4cc(OC)ccc24)C(=O)OC3=O)cc1	1% (inactive)
O=C(c1ccccc1)C1N=NN(Cc2ccccc2[N+](=O)[O-])C1C(=O)c1ccccc1 (stereo not drawn)	-57.5% (inactive)
Cc1ccc(S(=O)(=O)/C=C(\I)c2ccc([N+](=O)[O-])cc2)cc1	98.8% (active)
COCc1cc(C(C)(C)C)cc(CNC2CCCCC2)c1O	13.4% (inactive)
Oc1ccc(N=Cc2ccc(C=Nc3ccc(O)cc3)cc2)cc1	-7.7% (inactive)
CC1=CCCCC1=O	2.4% (inactive)
C[Si](C)(CCCOC(N)=O)COC(N)=O	-4.1% (inactive)
CC1=CC2C(c3ccccc3)Nc3ccccc3N2C1=O (stereo not drawn)	8.45% (inactive)
COC(=O)[C@@]12OC[C@]34[C@H]([C@@H](O)[C@@H]1O)[C@@]1(C)CC(=O)C(O)=C(C)[C@@H]1C[C@H]3OC(=O)[C@H](OC(=O)/C=C(\C)C(C)CO)[C@@H]24 (stereo partly drawn)	-1.7% (inactive)
COC(=O)CCC1CCC(CC2CCC(CCC(=O)OC)CC2)CC1 (stereo not drawn)	-26% (inactive)
O=C(Nc1cccc([N+](=O)[O-])c1)C(=O)C(C(=O)c1ccccc1-c1ccccc1)C1OC(=O)c2ccccc21 (stereo not drawn)	-45% (inactive)
Cc1ccc(NC(=S)NCC2CCCO2)cc1C (stereo not drawn)	8.85% (inactive)
CN1C(=O)C(/C=N/NC(=O)c2cccnc2)C(N)N(C)C1=O (stereo not drawn)	-1.45% (inactive)
CCCNC(=O)OCC#CCOC(=O)NCCC	-38.5% (inactive)
CCCC/C=C/C1C=CC(CCCCCCCC(=O)OCC)C(C(=O)OCC)C1 (stereo not drawn) (tested in a mixture with another compound)	17.4% (inactive)
CCOc1ccc(Nc2nc(N)nc(N)c2N)cc1	-13.7% (inactive)
O=C(Nc1ccc(S(=O)(=O)N2CCCCC2)cc1)OC1CCCC1	18.9% (inactive)

###

METHOD: NCI Yeast Anticancer Drug Screen. Data for the cln2 rad14 strain (AID 165);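 further: 0% = growth equal to vehicle treated cultures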
EXPERIMENTAL PARAMETERS: S. cerevisiae cln2 rad14 strain, at 50.0 µM, hits give high values
This is part of a sample that, as a whole, favours compounds with a hit. Of some 79,000 tested, about 15% had one in any assay.
PROPERTY MEASURED: growth inhibition (%)

> print(dat)
                                    compound  endpoint.value
 1        CCN(CC)CCNc1nc(N)c(C#N)c(C#N)c1C#N               9
 2  O=C(C(CO)c1ccccc1)N1CCOCC1 (configuration not stated)           -23.4
 3                           N=C(N)SCCC(=O)O           -69.6
 4                       CN(C)C(=S)SCCC(=O)O             8.5
 5  Cc1ccc(S(=O)(=O)N2CCCC2C(=O)O[C@H]2CC[C@H]3CC=C[C@H]32)cc1 (some centres not stated)           -8.45
 6                   CCN(/C=C/C=C(C#N)C#N)CC           -15.8
 7  CC(C)C(NC(=O)C1CSC(C)(C)N1C=O)C(N)=O (configuration not stated)            -6.7
 8  CCOc1ccc(/C=C2\N=C(c3cccc(Cl)c3)OC2=O)cc1            19.6
 9  CC(=O)[CH-]C(=O)c1ccccc1.CC(=O)[CH-]C(=O)c1ccccc1.CC12CC3(C)CC(C)(C1)CC([O-])(C2)C3.CC[O-].[Ti+4]            23.8
10  CC(=O)OCC1OCOC2C(COC(C)=O)OCOC12 (configuration not stated)           -24.4
11  O=NN(CCCl)C(=O)NC1CCC(O)CC1 (configuration not stated)            13.2
12                   N#CC12CC3CC(CC(C3)C1)C2             -45
13       CNc1ccccc1C(=O)N/N=C\c1ccc(Cl)cc1Cl           -2.85
14  c1csc(C(NC2=NCCO2)C2CC2)c1 (configuration not stated)           -25.1
15  CC(=O)OCC(=O)[C@@]1(O)CC[C@H]2[C@@H]3C[C@H](C)C4=CC(=O)C=C[C@]4(C)[C@@]3(Br)[C@@H](O)C[C@@]21C            35.9
16                OCc1ccc2ccc3ccc(CO)nc3c2n1           -25.4
17  C/C(=N\NC(=S)Nc1ccc(C(=O)O)cc1)c1nccc2ccccc12            28.9
18             Cc1ccnc(N=C/C=C2/C=CC=CN2O)c1            5.55
19  CC1=N/C(=C\c2ccc(N)cc2)C(=O)N1Nc1nnc(NN2C(=O)/C(=C/c3ccc(N)cc3)N=C2C)c2ccccc12            7.35
20  Cc1ccc(Sc2cccc3c2C(=O)c2c(Sc4ccc(C)cc4)cccc2C3=O)cc1           -12.4
21  Cc1ccc(N=Nc2ccc(C)cc2NC(=O)Nc2cc(C)ccc2C)cc1           -10.9
22    CCCCCn1c(=O)c2c(=O)[nH][nH]c2c2ccccc21           -69.6
23   CC(=O)Oc1cc(OC(C)=O)c(OC(C)=O)c2c1CCCC2           -91.1
24  O=C1c2ccccc2C(O)(C#Cc2ccccc2)c2c1c(-c1ccccc1)c1ccccc1c2-c1ccccc1 (configuration not stated)            9.75
25                  COC(=O)c1nc[nH]c1C(=O)OC               4
26                     CN(C)c1ncnc2nc[nH]c12           -14.4
27             Cc1cc([N+](=O)[O-])c2ncccc2c1             -33
